- targetEntity: Intestinal-type alkaline phosphatase (Bos taurus, UniProt P19111)
- Sequence (P19111 whole entry): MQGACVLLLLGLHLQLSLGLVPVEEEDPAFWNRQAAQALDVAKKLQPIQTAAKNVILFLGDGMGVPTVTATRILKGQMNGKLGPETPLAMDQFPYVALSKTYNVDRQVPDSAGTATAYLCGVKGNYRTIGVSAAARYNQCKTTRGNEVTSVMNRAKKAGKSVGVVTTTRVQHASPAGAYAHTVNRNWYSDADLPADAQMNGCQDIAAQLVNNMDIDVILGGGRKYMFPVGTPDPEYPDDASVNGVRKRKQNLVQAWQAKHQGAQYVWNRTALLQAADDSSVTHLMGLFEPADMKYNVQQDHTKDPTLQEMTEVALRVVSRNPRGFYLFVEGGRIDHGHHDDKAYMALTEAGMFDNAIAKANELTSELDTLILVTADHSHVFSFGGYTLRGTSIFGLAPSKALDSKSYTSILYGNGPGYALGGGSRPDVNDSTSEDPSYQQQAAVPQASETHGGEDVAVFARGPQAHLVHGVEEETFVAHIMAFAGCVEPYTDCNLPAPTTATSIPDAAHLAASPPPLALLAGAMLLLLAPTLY

| molecule | Ki |
| --- | --- |
| CCOC1Oc2ccc(CC)cc2C(=O)/C1=C\Nc1cccc(S(N)(=O)=O)c1 (stereo unspecified) | 2100 nM |
| CCOC1Oc2ccccc2C(=O)/C1=C\Nc1ccc(S(N)(=O)=O)cc1 (stereo unspecified) | 90600 nM |
| O=c1c(C2Nc3ccccc3S(=O)(=O)N2)coc2ccc(Br)cc12 (stereo unspecified) | 21 nM |
| CCOC1Oc2ccc(F)cc2C(=O)/C1=C\Nc1ccc(S(N)(=O)=O)cc1 (stereo unspecified) | 1430 nM |
| CCOC1Oc2ccccc2C(=O)/C1=C/Nc1ccc(S(=O)(=O)Nc2ccc(OC)nn2)cc1 (stereo unspecified) | 7800 nM |
| O=c1c(C2Nc3ccccc3S(=O)(=O)N2)coc2ccc(F)cc12 (stereo unspecified) | 780 nM |
| CCOC1Oc2c(Br)cc(Br)cc2C(=O)/C1=C\Nc1cccc(S(N)(=O)=O)c1 (stereo unspecified) | 800 nM |
| CCOC1Oc2ccc(F)cc2C(=O)/C1=C\Nc1cccc(S(N)(=O)=O)c1 (stereo unspecified) | 17100 nM |
| CCOC1Oc2ccc(F)cc2C(=O)/C1=C/Nc1ccc(S(=O)(=O)Nc2nnc(C)s2)cc1 (stereo unspecified) | 10 nM |
| CCOC1Oc2ccccc2C(=O)/C1=C/Nc1ccc(S(=O)(=O)Nc2cc(OC)nc(OC)n2)cc1 (stereo unspecified) | 7800 nM |
| CCOC1Oc2ccc(CC)cc2C(=O)/C1=C\Nc1ccccc1S(N)(=O)=O (stereo unspecified) | 400 nM |
